system: RXF 393 renal; test: NCI-60 one-dose screen, 48 h (100 = growth as untreated, 0 = no growth, -100 = all killed); settings: 10 µM unless noted
About 83,000 compounds went through this panel and 20% of them were active in at least one assay; those are over-represented in the sample as a whole.
// assign YES if growth falls strictly below 70%, else NO (ties count as NO)

Please review the entries below; each comes with its answer.
Molecule	Qualitative Label
CCn1c(=O)c2c(=O)c3c4c(oc3oc2c2ccccc21)C(=O)c1ccccc1C4=O	NO
O=C(Cc1c(F)cccc1Cl)Nc1ccc(S(=O)(=O)Nc2ncccn2)cc1	YES
COc1cc(C(=O)/C=C/c2cc(C(=O)c3cc(OC)c(OC)c(OC)c3)ccc2OC)ccc1N	YES
O=C(NCCCN1CCN(CCCNC(=O)C2CCCCC2)CC1)C1CCCCC1	NO
COc1ccc(C2SCC(=O)N2NC(=O)c2ccc(NC(=O)c3ccccn3)cc2)cc1OC (centres undefined)	NO
Nc1c(C(=O)Nc2cccc(C(F)(F)F)c2)sc2nc3c(cc12)CCCCCC3	YES

Query :: Is 70% strictly greater than the molecule's reported growth? molecule: COC(=O)[C@H]1[C@H](OC)[C@@H](OC(=O)/C=C/c2ccncc2)CC2CN3CCc4c([nH]c5cc(OC)ccc45)[C@@H]3C[C@@H]21 (some centres undefined)
Result :: NO

Query :: Now consider CN(C)c1ccc(/C=C\N=Nc2ccc(Br)cc2)cc1 and answer again.
Result :: NO

Query :: Now consider Cc1ccc2nc(SCn3nnc4ccccc4c3=O)[nH]c2c1 and answer again.
Result :: NO
